Experiment: viability loss in pontine glioma line – cell-based, SU-DIPG-XVII, MIPE5.0, CellTiter-Glo, qHTS, dose response (AID 1347060);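 for AC50: cells exposed to compound for 48 hours before viability readout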
Settings: CellTiter-Glo ATP luminescence
Records with an inconclusive call do not appear. Active and inactive are the calls of the source. No cut-off is given here; in the data, nearly all actives have AC50 up to about 26 µM.
Respond using exactly one of the listed classes: active, inactive

Recorded results for 4 molecules are shown here.
Cc1ccccc1C(C(=O)NC1CCCCC1)N(C(=O)Cn1ccnc1C)c1cccc(F)c1 (centres undefined): inactive
CC(C)n1cnc2c(NCCCCCCNC(=O)OC(C)(C)C)nc(NCCO)nc21: active
N#Cc1cccnc1N1CCN(C(=O)c2cccc(Cc3n[nH]c(=O)c4ccccc34)c2)CC1: active
Cc1cnc(-c2ccccc2C(C)C)nc1NCc1ccc(-n2ccnn2)cc1: inactive

Dear colleague, could you share the recorded outcome for C=CCNC1=C2CC(C)CC(OC)C(O)C(C)/C=C(\C)C(OC(N)=O)C(OC)/C=C/C=C(\C)C(=O)NC(=CC1=O)C2=O (centres undefined) when you have a moment?
active

Dear colleague, could you share the recorded outcome for C[C@H](NC(=O)C(=O)Nc1ccccc1C(C)(C)C)C(=O)N[C@@H](CC(=O)O)C(=O)COc1c(F)c(F)cc(F)c1F when you have a moment?
inactive

Dear colleague, could you share the recorded outcome for CN1CCN(CCOc2cc(OC3CCOCC3)c3c(Nc4c(Cl)ccc5c4OCO5)ncnc3c2)CC1 when you have a moment?
inactive

// provenance: PubChem BioAssay
